target: P. aeruginosa DNA gyrase (Pseudomonas aeruginosa, UniProt P48372+Q9I7C2); assay: Cell-free gyrase supercoiling inhibition assay; conditions: purified enzyme, cell-free supercoiling kit
Sequence (Q9I7C2 whole entry): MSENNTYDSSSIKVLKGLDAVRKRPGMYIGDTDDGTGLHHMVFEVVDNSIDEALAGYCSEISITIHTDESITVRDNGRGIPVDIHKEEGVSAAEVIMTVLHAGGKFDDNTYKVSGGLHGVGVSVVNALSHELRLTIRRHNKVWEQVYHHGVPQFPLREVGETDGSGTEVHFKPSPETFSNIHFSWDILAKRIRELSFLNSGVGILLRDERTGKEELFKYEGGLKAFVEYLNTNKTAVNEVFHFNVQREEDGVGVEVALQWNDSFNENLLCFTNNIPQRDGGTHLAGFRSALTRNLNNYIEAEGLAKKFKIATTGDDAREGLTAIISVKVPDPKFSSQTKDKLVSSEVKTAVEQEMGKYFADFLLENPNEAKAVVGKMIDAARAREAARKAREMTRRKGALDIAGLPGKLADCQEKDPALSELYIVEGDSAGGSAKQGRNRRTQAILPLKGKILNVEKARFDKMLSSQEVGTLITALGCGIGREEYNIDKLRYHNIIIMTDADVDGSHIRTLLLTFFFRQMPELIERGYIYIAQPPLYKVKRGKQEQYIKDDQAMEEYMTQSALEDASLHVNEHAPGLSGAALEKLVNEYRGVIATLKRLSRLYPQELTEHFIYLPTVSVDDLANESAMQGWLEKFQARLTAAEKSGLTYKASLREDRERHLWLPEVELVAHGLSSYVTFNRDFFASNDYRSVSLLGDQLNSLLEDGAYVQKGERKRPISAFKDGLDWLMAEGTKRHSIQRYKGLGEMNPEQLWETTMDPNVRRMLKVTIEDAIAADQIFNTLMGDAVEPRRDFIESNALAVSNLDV
Sequence (P48372 whole entry): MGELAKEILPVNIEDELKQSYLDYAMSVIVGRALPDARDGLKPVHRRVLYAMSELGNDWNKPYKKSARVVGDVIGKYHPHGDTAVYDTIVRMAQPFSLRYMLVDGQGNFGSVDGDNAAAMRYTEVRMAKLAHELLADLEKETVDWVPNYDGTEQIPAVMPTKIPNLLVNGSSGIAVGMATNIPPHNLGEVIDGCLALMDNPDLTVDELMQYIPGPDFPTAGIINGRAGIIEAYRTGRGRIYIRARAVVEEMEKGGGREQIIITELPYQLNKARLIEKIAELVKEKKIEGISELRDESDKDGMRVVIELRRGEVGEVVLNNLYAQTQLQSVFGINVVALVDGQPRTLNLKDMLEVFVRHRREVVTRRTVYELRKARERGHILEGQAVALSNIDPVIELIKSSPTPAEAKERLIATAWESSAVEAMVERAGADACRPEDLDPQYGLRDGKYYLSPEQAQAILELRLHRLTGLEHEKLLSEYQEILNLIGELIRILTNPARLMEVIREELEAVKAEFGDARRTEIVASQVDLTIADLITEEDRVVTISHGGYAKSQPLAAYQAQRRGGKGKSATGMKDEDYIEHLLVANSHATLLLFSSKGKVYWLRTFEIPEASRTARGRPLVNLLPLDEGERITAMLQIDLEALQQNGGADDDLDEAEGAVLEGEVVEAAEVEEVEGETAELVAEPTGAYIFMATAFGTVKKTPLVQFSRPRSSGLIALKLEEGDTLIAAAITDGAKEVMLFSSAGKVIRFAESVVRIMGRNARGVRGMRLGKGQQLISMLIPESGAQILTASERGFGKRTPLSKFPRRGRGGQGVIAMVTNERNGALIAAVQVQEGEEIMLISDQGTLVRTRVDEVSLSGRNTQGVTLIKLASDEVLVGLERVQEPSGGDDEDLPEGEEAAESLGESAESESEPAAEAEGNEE
Measure name: pIC50
For clarity, pIC50 is expressed as the negative log10 of concentration in mol/L.

# input Any idea what pIC50 was measured for `O=C(O)c1cn(-c2cccc3ccsc23)c2cc(N3CCNCC3)c(F)cc2c1=O` ?
# output 4.80

###

test system: A. baumannii ATCC 17978; assay: MIC, microdilution broth method; assay type: cell-based, Acinetobacter baumannii; settings: Acinetobacter baumannii, ATCC17978, +PMBN (30 μg/mL); ciprofloxacin-sensitive strain (S)
Kindly state MIC for each of the entries shown.
Entry rule: numbers only, all in µg/mL.

# input Recall the recorded MIC for `O=C(O)c1cn(-c2cccc3ccoc23)c2cc(N3CCNCC3)c(F)cc2c1=O` with A. baumannii ATCC 17978 and state it.
# output 1

# input Recall the recorded MIC for O=C(O)c1cn(C2CC2)c2cc(N3CCNCC3)c(F)cc2c1=O [Compound 6a, ciprofloxacin, reference compound] with A. baumannii ATCC 17978 and state it.
# output 0.5

# input Recall the recorded MIC for CCn1cc(C(=O)O)c(=O)c2cc(F)c(N3CCNCC3)cc21 [Compound 6b, norfloxacin, reference compound] with A. baumannii ATCC 17978 and state it.
# output 4

# input Recall the recorded MIC for `O=C(O)c1cn(-c2cccc3ccsc23)c2cc(N3CCNCC3)c(F)cc2c1=O` with A. baumannii ATCC 17978 and state it.
# output 4

# input Recall the recorded MIC for `O=C(O)c1cn(Cc2ccccc2)c2cc(N3CCNCC3)c(F)cc2c1=O` with A. baumannii ATCC 17978 and state it.
# output 4
